Assay: Total clearance in Sprague-Dawley rat at 0.3 mg/kg, iv measured up to 24 hrs by LC-MS/MS analysis
Format: ADME, organism-based
Conditions: in vivo

givenSmiles | outputUnit | clearance
Cn1cc(-c2nc3c(-c4ccnc(OC5CC5)c4)cnn3cc2OCCC(C)(C)O)cn1 | mL/min/kg | 8.17

---

Assay: Metabolic stability in human liver microsomes assessed as compound remaining at 1 uM incubated for 60 mins
Format: ADME, Microsome
Settings: read-out: Stabilty
Lab note: compare remaining at 1 h, 1 µM with 30%, writing Y if less and N if equal or more.

compound | answerLabel
COc1cc(-c2cnn3cc(OC)c(C4CCOC4)nc23)ccn1 (stereo unspecified) | Y
COc1cc(-c2cnn3cc(OC)c(N(C)C)nc23)ccn1 | Y
COc1cn2ncc(-c3ccnc(OC(C)(C)C)c3)c2nc1-c1cnn(C)c1 | N
COc1cc(-c2cnn3cc(OC)c(-c4cnn(C)c4)nc23)ccn1 | N
CNc1nc2c(-c3ccnc(OC)c3)cnn2cc1OC | N
Cn1cc(-c2nc3c(-c4ccnc(OC5CC5)c4)cnn3cc2OCC(C)(C)O)cn1 | N
COc1cc(-c2cnn3cc(OC)c(-c4cc(C)no4)nc23)ccn1 | N
COc1cc(-c2cnn3cc(OC)c(C(C)C)nc23)ccn1 | N
COc1cc(-c2cnn3cc(OC)c([C@H]4COC(C)(C)C4)nc23)ccn1 | Y
COc1cn2ncc(-c3ccnc(OC(C)C)c3)c2nc1-c1cnn(C)c1 | N
Cn1cc(-c2nc3c(-c4ccnc(OC5CC5)c4)cnn3cc2OCCC(C)(C)O)cn1 | N

---

Experiment: Half life in mouse at 1 mg/kg, po by LC/MS analysis
Assay type: ADME, organism-based
Conditions: in vivo

givenSmiles | half-life [h]
Cn1cc(-c2nc3c(-c4ccnc(OC5CC5)c4)cnn3cc2OCCC(C)(C)O)cn1 | 4.6

---

Assay: Volume of distribution at steady state in Sprague-Dawley rat at 0.3 mg/kg, iv measured up to 24 hrs by LC-MS/MS analysis
Type: ADME, organism-based
Settings: in vivo, read-out: Vdss

givenSmiles | Vd, L/kg
Cn1cc(-c2nc3c(-c4ccnc(OC5CC5)c4)cnn3cc2OCCC(C)(C)O)cn1 | 2.7

---

Assay: Apparent permeability across apical to basolateral side in human Caco2 cells incubated for 2 hrs by LC/MS/MS analysis
Format: ADME, cell-based
Conditions: Caco-2, read-out: permeability
measuredQuantity: Papp A→B at 2 h (nm/s)

givenSmiles | measuredQuantity | obsValue
Cn1cc(-c2nc3c(-c4ccnc(OC5CC5)c4)cnn3cc2OCCC(C)(C)O)cn1 | Papp A→B at 2 h | 14

---

This listing pairs molecules with measured remaining at 1 h, 1 µM.
Assay: Metabolic stability in rat liver microsomes assessed as compound remaining at 1 uM incubated for 60 mins
Assay type: ADME, Microsome
Details: read-out: Stabilty
measuredQuantity: remaining at 1 h, 1 µM (%)

molecule | measuredQuantity | obsValue
COc1cn2ncc(-c3ccnc(OC(C)(C)C)c3)c2nc1-c1cnn(C)c1 | remaining at 1 h, 1 µM | 61
COc1cc(-c2cnn3cc(OC)c(C4CCCC4)nc23)ccn1 | remaining at 1 h, 1 µM | 7
COc1cc(-c2cnn3cc(OC)c(C)nc23)ccn1 | remaining at 1 h, 1 µM | 13
COc1cc(-c2cnn3cc(OC)c(-c4cc(C)no4)nc23)ccn1 | remaining at 1 h, 1 µM | 62
Cn1cc(-c2nc3c(-c4ccnc(OC5CC5)c4)cnn3cc2OCC(C)(C)O)cn1 | remaining at 1 h, 1 µM | 81
COc1cn2ncc(-c3ccnc(OC4CC4)c3)c2nc1-c1cnn(C)c1 | remaining at 1 h, 1 µM | 32
COc1cc(-c2cnn3cc(OC)c(C(C)C)nc23)ccn1 | remaining at 1 h, 1 µM | 14
COc1cc(-c2cnn3cc(OC)c([C@@H]4COC(C)(C)C4)nc23)ccn1 | remaining at 1 h, 1 µM | 30
COc1cc(-c2cnn3cc(OC)c(C(C)(C)O)nc23)ccn1 | remaining at 1 h, 1 µM | 92
COc1cc(-c2cnn3cc(OC)c(C4CCOC4)nc23)ccn1 (stereo not drawn) | remaining at 1 h, 1 µM | 34
COc1cc(-c2cnn3cc(OC)c(N(C)C)nc23)ccn1 | remaining at 1 h, 1 µM | 3
Cn1cc(-c2nc3c(-c4ccnc(OC5CC5)c4)cnn3cc2OCCC(C)(C)O)cn1 | remaining at 1 h, 1 µM | 84
Cn1cc(-c2nc3c(-c4ccnc(OC5CC5)c4)cnn3cc2OCCCC(C)(C)O)cn1 | remaining at 1 h, 1 µM | 64
COc1cc(-c2cnn3cc(OC)c(-c4cnn(C)c4)nc23)ccn1 | remaining at 1 h, 1 µM | 56
COc1cnc2c(-c3ccnc(OC)c3)cnn2c1 | remaining at 1 h, 1 µM | 10
CNc1nc2c(-c3ccnc(OC)c3)cnn2cc1OC | remaining at 1 h, 1 µM | 74
COc1cc(-c2cnn3cc(OC)c([C@H]4COC(C)(C)C4)nc23)ccn1 | remaining at 1 h, 1 µM | 30
COc1cn2ncc(-c3ccnc(OC(C)C)c3)c2nc1-c1cnn(C)c1 | remaining at 1 h, 1 µM | 50

---

Test: Metabolic stability in human liver microsomes assessed as compound remaining at 1 uM incubated for 60 mins
Format: ADME, Microsome
Settings: read-out: Stabilty
Lab note: compare remaining at 1 h, 1 µM with 40%, writing Satisfied if less and Not satisfied if equal or more.

givenSmiles | answerLabel
COc1cc(-c2cnn3cc(OC)c(C(C)(C)O)nc23)ccn1 | Not satisfied
COc1cc(-c2cnn3cc(OC)c(C4CCCC4)nc23)ccn1 | Satisfied
COc1cc(-c2cnn3cc(OC)c([C@@H]4COC(C)(C)C4)nc23)ccn1 | Satisfied
Cn1cc(-c2nc3c(-c4ccnc(OC5CC5)c4)cnn3cc2OCCCC(C)(C)O)cn1 | Not satisfied
COc1cn2ncc(-c3ccnc(OC4CC4)c3)c2nc1-c1cnn(C)c1 | Not satisfied
COc1cnc2c(-c3ccnc(OC)c3)cnn2c1 | Satisfied
COc1cc(-c2cnn3cc(OC)c(C)nc23)ccn1 | Not satisfied

---

Experiment: Oral bioavailability in mouse at 1 mg/kg by LC/MS analysis
Assay type: ADME, organism-based
Conditions: in vivo
measuredQuantity: bioavailability (%)

givenSmiles | measuredQuantity | obsValue
Cn1cc(-c2nc3c(-c4ccnc(OC5CC5)c4)cnn3cc2OCCC(C)(C)O)cn1 | bioavailability | 48

Origin of the recorded values: ChEMBL document CHEMBL4706744
